- Target System: Heat shock protein HSP 90-alpha (Homo sapiens)
- Measurement Description: Inhibition of recombinant Homo sapiens (human) Hsp90 alpha ATPase activity assessed as inorganic phosphate release at 10 uM by malachite green colorimetric method
Measured Attribute: inhibition

Example compounds with recorded inhibition:
* COc1ccc(NC(=O)C[n+]2cccc(C(=O)Nc3ccccc3)c2)cc1 | 4%
* COc1ccc(NC(=O)C[n+]2ccccc2)cc1 | 43%
* COc1ccc(NC(=O)c2ccc[n+](CC(=O)Nc3ccc(C)cc3)c2)cc1 | 20%
* COc1ccc(NC(=O)C[n+]2cccc(C(=O)Nc3ccc(SC)cc3)c2)cc1 | 29%

Ask | Please report inhibition for the following compound: Cc1ncc(C[n+]2csc(CCO)c2C)c(N)n1 [THIAMINE ION]
Reply | 40%

###

- Target System: Heat shock protein HSP 90-alpha (Homo sapiens)
- Measurement Description: Inhibition of recombinant Homo sapiens (human) Hsp90 alpha ATPase activity assessed as inorganic phosphate release at 10 uM by malachite green colorimetric method
I'd appreciate it if you could supply inhibition values for the items below.
Numbers only, in %.

Example compounds with recorded inhibition:
* NC(=O)c1ccc[n+](CC(=O)NCCc2ccccc2)c1 | 46
* NC(=O)c1ccc[n+](CCc2ccccc2)c1 | 9
* C=CCNC(=O)c1ccc[n+](CC(=O)Nc2ccc(Cl)cc2)c1 | 1.6

Moving on to the next compound.
Ask | Please report inhibition for the following compound: `CCOC(=O)C[n+]1cccc(C(N)=O)c1`
Reply | 13
